These measurements were taken from patent US4590063A.

test protocol: in vivo
test parameters: mouse, oral gavage, mice, 24 hours, read-out: Acute (24 hr.) Toxicity Approximate LD50
property measured: LD50 at 24 h

Determine its reported LD50 at 24 h: COc1cc(C(=O)NCCCN(C)C)c(OC)c2ccccc12.Cl ~750 mg/kg

Return the recorded LD50 at 24 h value; entry: COc1cc(C(=O)NCCN(C)C)c(OC)c2ccccc12.Cl ~750 mg/kg

Read the entry CCCC(CCC)C(=O)O [Valproic Acid, reference compound] and write its reported LD50 at 24 h. ~1420 mg/kg

Return LD50 at 24 h for the following molecule: O=C1NC(=O)C(c2ccccc2)(c2ccccc2)N1 [Dilantin, phenytoin, reference compound] ~417 mg/kg
